# Target: human kappa opioid receptor (hKOR) (Homo sapiens, UniProt P41145)
# Construct: expressed in transfected cells; host or cells: HEK-293 cells (ATCC), transient transfection with pcDNA3-hOPRK1
# Sequence (P41145 whole entry): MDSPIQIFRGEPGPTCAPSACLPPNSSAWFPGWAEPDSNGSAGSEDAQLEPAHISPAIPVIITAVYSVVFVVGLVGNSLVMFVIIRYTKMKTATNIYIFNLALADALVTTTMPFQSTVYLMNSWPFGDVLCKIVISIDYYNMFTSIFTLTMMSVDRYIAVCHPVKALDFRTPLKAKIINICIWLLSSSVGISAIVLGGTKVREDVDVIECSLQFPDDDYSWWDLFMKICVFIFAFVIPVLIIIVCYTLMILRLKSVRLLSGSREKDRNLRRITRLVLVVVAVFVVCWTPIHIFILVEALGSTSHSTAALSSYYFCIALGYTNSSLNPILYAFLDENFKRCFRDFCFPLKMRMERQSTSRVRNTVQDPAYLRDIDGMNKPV
# Measurement notes: NFAT-luciferase reporter assay in HEK-293 cells transfected with human kappa opioid receptor and chimeric G-protein
# Assay type: cell-based
# Run parameters: percent maximal activation compared to full induction by known kappa agonists
Consider the following compounds; for each one, report its hKOR Efficacy(%).
Report as a plain number; the unit % is understood.

Q) Please look up its hKOR Efficacy(%): CC(C)C[C@@H](NC(=O)[C@@H](Cc1ccccc1)NC(=O)[C@H](N)Cc1ccccc1)C(=O)N[C@H](CCCCN)C(=O)NCC1OCCO1 [Compound 25]
A) 98

Q) Input CC(C)C[C@@H](NC(=O)[C@@H](Cc1ccccc1)NC(=O)[C@H](N)Cc1ccccc1)C(=O)N[C@H](CCCCN)C(=O)NCc1ccc(C(F)(F)F)nc1 [Compound 35]
A) 95

Q) Input CC(C)C[C@@H](NC(=O)[C@@H](Cc1ccccc1)NC(=O)[C@H](N)Cc1ccccc1)C(=O)N[C@H](CCCCN)C(=O)N1CCN(S(=O)(=O)N(C)C)CC1 [Compound 30]
A) 101

Q) Input CC(C)C[C@@H](NC(=O)[C@@H](Cc1ccccc1)NC(=O)[C@H](N)Cc1ccccc1)C(=O)N[C@H](CCCCN)C(=O)N1CCS(=O)(=O)CC1 [Compound 34]
A) 103

Q) Input CC(C)C[C@@H](NC(=O)[C@@H](Cc1ccccc1)NC(=O)[C@H](N)Cc1ccccc1)C(=O)N[C@H](CCCCN)C(=O)N1CCN(S(=O)(=O)c2ccccc2)CC1 [Compound 32]
A) 101

Q) Input CC(C)C[C@@H](NC(=O)[C@@H](Cc1ccccc1)NC(=O)[C@H](N)Cc1ccccc1)C(=O)N[C@H](CCCN)C(=O)N1CCNC(C(=O)O)C1 (stereo partly drawn) [Compound 8]
A) 93

Every entry's value here was drawn from patent US20140357579A1.
